The measured values listed here are drawn from PubChem BioAssay (NCI).

method-notes: NCI Yeast Anticancer Drug Screen. Data for the mlh1 rad18 strain (AID 175)
conditions-used: S. cerevisiae mlh1 rad18 strain growth inhibition; at 50.0 µM (retest, dose inferred, filed as 5.0); hits give high values
This is part of a sample that, as a whole, favours compounds with a hit. Of some 79,000 tested, about 15% had one in any assay. Where a SMILES comes first, the peptide text is derived from it. [ ]: non-standard residue; d: D form. Nva = CCC[CH](N)C(=O)O
property: growth inhibition (%)

• NC1CCCCC1N.O=S(=O)([O-])CCCN1CCOCC1.O=S(=O)([O-])CCCN1CCOCC1.[Pt+4] = 98
• O=C(O)c1ccccc1C(=O)c1ccc2c(c1)Cc1ccccc1-2 = 26
• Cn1c(=S)sc2nc3ccccc3n2c1=S = 97
• CCOC(=O)C1=C(c2ccccc2)OC(N)=C(C#N)C1c1ccc(C)cc1 (configuration not stated) = 65
• O=C(NNc1ccccc1)C(O)C(=O)C(O)C(O)C(O)CO (configuration not stated) = 28
• Cc1ccc([S@](=O)c2occc2C=O)cc1 = 96
• CCC(C)(C[NH-])C[NH-].[Cl][Pt+2][Cl] = 42
• COc1cc(OC)c(C/C=C/c2ccccc2)cc1O = 93
• CCOC(=O)C[n+]1c(C)sc2ccccc21 = 43
• CCCC(N)C(=O)NC(C(=O)O)C(C)C (configuration not stated) (H-[Nva]-Val-OH; configuration not given here) = -9
• CN(Cc1cnc2nc(N)nc(N)c2n1)c1ccc(C(=O)NC(CCC(=O)O)C(=O)O)cc1C(F)(F)F (configuration not stated) = 86
• O=C(O)Cc1ccc2ccccc2c1-c1ccccc1 = 94
• COC(=O)C1CCN(Cc2ccccc2)CC1=O (configuration not stated) = 47
• O=C1c2ccccc2C(=O)c2ncccc21 = 95
• COc1cccc(-c2cc(=O)c3c(C)ccnc3[nH]2)c1 = 14
• Nc1ccc(C(=O)N/N=C\c2cccc3ccccc23)cc1 = 21
• Cc1cccc2c(CC(=O)O)cccc12 = 88
• CCCC(C)C/C(C)=C\C(C)(C)C1CC(=O)N(CC)C1=O (configuration not stated) = 98
• CCOC(=O)C1(C#N)C(c2ccccc2)C1(C#N)C#N (configuration not stated) = 98
• CCOC(=O)c1[nH]n(-c2ccccc2)c(=O)c1/C=N/C(=S)N=Nc1c(O)[nH]c2ccccc12 = -2
• Cc1cc(N2C(=O)CCSC2=S)ccc1Cl = 18
• O=C(NO)Nc1nc(Cl)c(Cl)nc1Cl = 99
• c1ccc(N/N=C2/CCCC3/C(=N\Nc4ccccc4)CCCC23)cc1 (configuration not stated) = 99
• O=c1c(SSc2coc3ccccc3c2=O)coc2ccccc12 = 97
• CC(C)=CCc1c(O)cc(O)c2c1OC(c1ccc(O)cc1)C(O)C2=O (configuration not stated) = 99
• CCN(CC)COC(=S)S = 99
• CCOC(=O)N/N=C/c1ccc([N+](=O)[O-])o1 = 78
• O=C1C=CC(=C(c2ccccc2)c2ccc(O)cc2)C=C1 = 86
• O=C(OCc1ccccc1CN1CCOCC1)c1ccc(Br)cc1 = 36
• CN(C)C1C[C@@H](O[Si](C)(C)C(C)(C)C)C=C1S(=O)(=O)c1ccccc1 (some centres not stated) = 100
• C=CCOc1ccccc1C(=O)OC = -1
• O=S(O)CCCCCSSc1ccc(Cl)cc1 = 97
• OCC1CCCCCCCCCCC1 = 51
• C=C1C(=O)O[C@@H]2C[C@]3(C)CC[C@]4(C)[C@H](CC[C@@H]5[C@@]6(C)CCC(=O)C(C)(C)[C@@H]6CC[C@]54C)[C@H]3[C@H]12 = 4
• [O-]c1c2cc(-[n+]3c(-c4ccccc4)cc(-c4ccccc4)cc3-c3ccccc3)cc1CO[C@@H](c1ccccc1)[C@H](c1ccccc1)OCCOCCO[C@@H](c1ccccc1)[C@H](c1ccccc1)OC2 = 94
• CCCCCCCCCCC(O)CN1CCN(c2cccc(Cl)c2)CC1 (configuration not stated) = 99
• Cc1cccc(C[N+](C)(C)CCCO)c1C = -3
• CCc1ccc(N(C(C)=O)C2=C(Cl)C(=O)c3ccccc3C2=O)cc1 = 99
• O=C(O)c1c2c(c(O)c3c1CN(C1CCCCC1)CO3)OCN(C1CCCCC1)C2 = 25
• CCOC(=O)c1cc(Cl)nc2ccc(OC)cc12 = -25
• CC(C)(C)C1=CC(N2CCCCC2)(C(C)(C)C)C=C(C(C)(C)C)C1=O = 73
• c1ccc(C(c2ccccc2)c2ccc3ccccc3n2)cc1 = 80
• CN/N=C(\C)C(CN1CCCCC1)C(C1=C(O)c2ccccc2OC1)c1ccccc1 (configuration not stated) = 25
• Cc1ccc(C2=Nc3c(c(C)nn3-c3ccccc3)N=C(C(=O)O)C2)cc1 = 86
• COc1ccc(N=Cc2ccccc2O)cc1 = -45
• O=C(c1ccccc1)c1ccc(Br)cc1O = 8
• CC1=C(C(=O)Nc2cccc(Cl)c2)C(c2ccccc2F)C(C(=O)Nc2cccc(Cl)c2)=C(C)N1 = 62
